biological target: T1, HLA DRB3*01:01 (human); assay: competition with radiolabeled peptide, purified HLA
T1 construct: purified HLA class II molecule; only the beta-chain allele is printed
observation type: pIC50
Answers are plain numbers, as −log10 of the molar value.

Q: Provide one value: measured pIC50 of DNEAYEMPSEEGYQD (synthetic 15-mer of alpha-synuclein) [alpha-syn peptide aa121DNEAYEMPSEEGYQDaa135]
Result: 6.10
